Item-by-item account of inhibition at 0.03 µM
Molecular target: human TRPC6 (Homo sapiens, UniProt Q9Y210)
Construct: expressed in transfected cells; host or cells: HEK293
Sequence (Q9Y210 whole entry): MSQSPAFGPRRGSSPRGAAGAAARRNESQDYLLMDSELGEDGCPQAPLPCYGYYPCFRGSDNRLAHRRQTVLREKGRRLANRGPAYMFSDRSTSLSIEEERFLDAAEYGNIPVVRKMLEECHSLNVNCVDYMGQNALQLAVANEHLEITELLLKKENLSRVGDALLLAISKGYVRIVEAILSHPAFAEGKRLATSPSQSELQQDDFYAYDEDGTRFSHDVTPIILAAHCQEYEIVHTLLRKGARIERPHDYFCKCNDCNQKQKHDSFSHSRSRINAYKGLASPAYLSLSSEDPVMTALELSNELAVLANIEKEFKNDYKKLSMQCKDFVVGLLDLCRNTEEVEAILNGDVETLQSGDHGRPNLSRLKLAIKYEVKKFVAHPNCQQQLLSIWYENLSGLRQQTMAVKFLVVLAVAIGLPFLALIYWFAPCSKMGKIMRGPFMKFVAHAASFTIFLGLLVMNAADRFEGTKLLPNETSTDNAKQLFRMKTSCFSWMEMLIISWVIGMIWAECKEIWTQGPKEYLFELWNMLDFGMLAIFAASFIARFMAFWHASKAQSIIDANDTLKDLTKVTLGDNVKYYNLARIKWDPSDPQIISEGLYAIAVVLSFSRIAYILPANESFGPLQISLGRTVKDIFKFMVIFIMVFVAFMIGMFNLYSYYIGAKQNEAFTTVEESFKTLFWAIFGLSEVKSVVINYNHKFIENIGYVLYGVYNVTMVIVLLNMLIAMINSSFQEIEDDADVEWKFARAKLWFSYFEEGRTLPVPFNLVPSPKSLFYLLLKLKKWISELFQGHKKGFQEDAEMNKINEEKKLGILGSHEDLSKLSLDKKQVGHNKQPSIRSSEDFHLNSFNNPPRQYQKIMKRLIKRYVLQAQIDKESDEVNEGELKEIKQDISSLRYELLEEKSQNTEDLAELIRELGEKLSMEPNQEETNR
Experiment: Assay A: Determination of TRPC6 inhibition, whole-cell patch clamp assay
Format: cell-based
Conditions: 30 nM; HEK293 cells expressing human TRPC6; pre-incubated at least 3 h; average inward current densities vs vehicle; activated by 10 μM ethyl 8-fluoro-1H,2H,3H,4H,5H-pyrido[4,3-b]indole-2-carboxylate
Don't forget the unit after the number, please.

Below, 5 compounds whose answers are already recorded.
1) COc1cc(C(=O)N2CC[C@H](c3nnc(N)cc3C)C[C@@H]2C)ccc1Oc1ccc(C(F)(F)F)nc1 [Compound 4] = 12%
2) COc1ccc(Oc2ccc(C(=O)N3CCC(c4nnc(N)cc4C)CC3)cc2)cn1 [Compound 7, trifluoroacetic acid] = 61%
3) COc1ccc(Oc2ccc(C(=O)N3CC[C@@H](c4nnc(N)cc4C)[C@@H](C)C3)cc2OC)cn1 [Compound 6] = 72%
4) COc1ccc(Oc2ccc(C(=O)N3CCC(c4nnc(N)cc4C)CC3)cc2OC)cn1 [Compound 8, trifluoroacetic acid] = 37%
5) COc1ccc(Oc2ccc(C(=O)N3CC[C@H](c4nnc(N)cc4C)C[C@@H]3C)cc2OC)cn1 [Compound 2] = 60%

inhibition at 0.03 µM measured on COc1ccc(Oc2cnc(C(=O)N3CCC(c4ccc(N)nn4)CC3)cc2OC)cn1 [Compound 5] = 27%

# inhibition at 0.03 µM of COc1ccc(Oc2ccc(C(=O)N3CC[C@H](c4nnc(N)cc4C)C[C@@H]3C)cc2)cn1 [Compound 1, trifluoroacetic acid] = 81%

// field: inhibition at 0.03 µM; key: COc1ccc(Oc2cnc(C(=O)N3CCC(c4nnc(N)cc4C)CC3)cc2OC)cn1 [Compound 9] ; value = 51%
